The reported measurements were obtained from patent US9327264B2.

assay-summary: Glass transition temperature Tg
Type: physicochemical
Just a reminder that ties go to Condition not met: only Tg strictly below 7 °C counts as Condition met.

compound="CC(C(=O)O)c1cccc(C(=O)c2ccccc2)c1 (stereo not drawn) [Ketoprofen]" cat="Condition met"
compound="CC(C)(Sc1cc(C(C)(C)C)c(O)c(C(C)(C)C)c1)Sc1cc(C(C)(C)C)c(O)c(C(C)(C)C)c1 [Probucol]" cat="Condition not met"
compound="NC(=O)N1c2ccccc2C=Cc2ccccc21 [Carbamazepine]" cat="Condition not met"
compound="Clc1ccccc1C(c1ccccc1)(c1ccccc1)n1ccnc1 [Clotrimazole]" cat="Condition not met"
compound="Clc1ccc(COC(Cn2ccnc2)c2ccc(Cl)cc2Cl)c(Cl)c1 (stereo not drawn) [Miconazole Nitrate]" cat="Condition met"
